All values here come from patent US20250027068.

Catalogue of proteins with associated Enzyme Activity Endpoint Assay (purified): IgG
# system tested: pooled human IgG (human IgG1, 2, 3 and 4)
Give the value in ng/µL but do not write ng/µL after it.

PRT-469 (protein) MVTSVWTKGVTPPTDFIKGEDVFHAPYKAGQGWYDITKAFDGGDDLLCGAATAGNMLHWWFDQNKDQIERYLKEHPEKQKINFNGEQMFDVKEAIDTKDSQTNSELFNYFKEKAFPYLSTKHLGVFPDHVLDMFINGYRLSLTNHGPTPVKRQEKDPRGGIFDAVFGRGDQTKLLTSRHDLKNKTLKEISDLIKQELTEGKALGLSHTYANVRINHVINLWGADFDSEGNLKAIYVTDSDSNASIGMKKYFVGVNSAGKVAISAKEIKEDNIGAQVLGLFTLSTGQKIWNKTNLEHHHHHH ... 50

stdin: Quick one: Enzyme Activity Endpoint Assay (purified): IgG of PRT-412 (protein) MVTSVWTKGVTPPADFTQGEDVFHAPYVANQGWYDITKTFNGKDDLLCGAATAGNMLHWWFDQNKEYIEAYLKKHPEKQKIMFGDQELLDVRKAINTKGSQKNSELFNYFRDKAFPNLSARRLGVMPDLVLDMFINGYYLNVTKTQTTDVNRTYQEKDKRGGIFDAVFTRGDQSKLLTSRHDFKEKGLKEISDLIKQELTEGKALGLSHTYANVRINHVINLWGADFDSDGNLKAIYVTDSDSNASIGMKKYFVGVNAAGKVAISAKEIKEDNIGAQVLGLFTLSTGQDIWNQTN ?
stdout: 0
